Biological target: SERCA2a (Sus scrofa)
Sequence (P11607 1-997 isoform P11607-2): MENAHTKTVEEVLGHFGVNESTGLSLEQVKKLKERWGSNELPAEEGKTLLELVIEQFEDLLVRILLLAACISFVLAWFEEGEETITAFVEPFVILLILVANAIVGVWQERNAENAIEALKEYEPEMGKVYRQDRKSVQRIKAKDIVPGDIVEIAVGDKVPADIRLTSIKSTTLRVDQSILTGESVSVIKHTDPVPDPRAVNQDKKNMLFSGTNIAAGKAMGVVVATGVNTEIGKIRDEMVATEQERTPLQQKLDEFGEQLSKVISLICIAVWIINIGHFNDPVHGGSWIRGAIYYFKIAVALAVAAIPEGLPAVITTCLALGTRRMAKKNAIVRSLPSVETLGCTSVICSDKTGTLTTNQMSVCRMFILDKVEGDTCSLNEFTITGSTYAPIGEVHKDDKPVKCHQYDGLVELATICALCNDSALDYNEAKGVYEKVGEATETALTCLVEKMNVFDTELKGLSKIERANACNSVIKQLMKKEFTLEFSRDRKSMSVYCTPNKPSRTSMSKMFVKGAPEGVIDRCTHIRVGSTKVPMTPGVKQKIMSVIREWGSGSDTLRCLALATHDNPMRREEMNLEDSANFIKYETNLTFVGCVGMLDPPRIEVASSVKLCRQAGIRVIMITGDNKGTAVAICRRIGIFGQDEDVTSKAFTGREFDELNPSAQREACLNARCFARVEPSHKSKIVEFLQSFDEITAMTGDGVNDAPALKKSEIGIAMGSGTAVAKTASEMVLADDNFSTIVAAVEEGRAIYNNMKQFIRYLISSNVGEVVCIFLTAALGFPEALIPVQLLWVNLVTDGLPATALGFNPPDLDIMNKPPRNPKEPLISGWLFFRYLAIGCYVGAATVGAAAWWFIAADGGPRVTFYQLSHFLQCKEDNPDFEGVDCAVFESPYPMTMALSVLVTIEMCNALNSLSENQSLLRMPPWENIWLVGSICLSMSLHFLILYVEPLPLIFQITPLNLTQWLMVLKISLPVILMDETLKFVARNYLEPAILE
Experiment: NADH-coupled enzyme-linked Ca2+-ATPase activity assay in cardiac SR vesicles
Assay type: biochemical, porcine
Conditions: Ca2+-ATPase activity, [Ca2+]MAX (pCa 5.4), vs no compound; mean±SD, n=4-6
observable: Max increase (%)

molecule="CCN(Cc1ccccc1OC)C(=O)c1cc(C)c(C)s1 [Compound 32]" testedtarget="SERCA2a (Sus scrofa)" assayvalue=43
molecule="CCCN(Cc1ccccc1OC)C(=O)c1scc(C)c1C [Compound 2]" testedtarget="SERCA2a (Sus scrofa)" assayvalue=47
molecule="CCCN(Cc1ccccc1OC)C(=O)c1cccc(Cl)c1 [Compound 16]" testedtarget="SERCA2a (Sus scrofa)" assayvalue=61
molecule="CCCN(Cc1ccccc1OC)C(=O)c1cccc(C)c1 [Compound 10]" testedtarget="SERCA2a (Sus scrofa)" assayvalue=59
molecule="CCN(Cc1ccccc1OC)C(=O)c1cccc(Br)c1F [Compound 52]" testedtarget="SERCA2a (Sus scrofa)" assayvalue=46
molecule="CCCN(Cc1ccccc1OC)C(=O)c1cccc(Br)c1 [Compound 22]" testedtarget="SERCA2a (Sus scrofa)" assayvalue=46
molecule="COc1ccccc1CN(C(=O)c1cc(C)c(C)s1)C1CC1 [Compound 35]" testedtarget="SERCA2a (Sus scrofa)" assayvalue=46
molecule="COc1ccccc1CNC(=O)c1cc(C)c(C)s1 [Compound 30]" testedtarget="SERCA2a (Sus scrofa)" assayvalue=24
molecule="CCCN(Cc1ccccc1OC)C(=O)c1ccsc1 [Compound 5]" testedtarget="SERCA2a (Sus scrofa)" assayvalue=29
molecule="CCCN(Cc1ccccc1OC)C(=O)c1cccc(C(F)(F)F)c1 [Compound 21]" testedtarget="SERCA2a (Sus scrofa)" assayvalue=40
molecule="CCN(Cc1ccccc1OC)C(=O)c1cccc(Br)c1 [Compound 51]" testedtarget="SERCA2a (Sus scrofa)" assayvalue=46
molecule="CCCN(Cc1ccccc1OC)C(=O)c1ccccc1OC [Compound 18]" testedtarget="SERCA2a (Sus scrofa)" assayvalue=27
molecule="CCCN(Cc1ccccc1OC)C(=O)c1cccc(OC)c1 [Compound 19]" testedtarget="SERCA2a (Sus scrofa)" assayvalue=45
molecule="CCN(Cc1ccccc1OC)C(=O)c1ccc(F)c(Br)c1 [Compound 53]" testedtarget="SERCA2a (Sus scrofa)" assayvalue=45
molecule="CCCN(Cc1ccccc1OC)C(=O)c1ccccc1C [Compound 9]" testedtarget="SERCA2a (Sus scrofa)" assayvalue=28
molecule="CCCN(Cc1ccccc1OC)C(=O)c1cccs1 [Compound 4]" testedtarget="SERCA2a (Sus scrofa)" assayvalue=30
molecule="CCCN(Cc1ccccc1OC)C(=O)c1ccccc1F [Compound 12]" testedtarget="SERCA2a (Sus scrofa)" assayvalue=40
molecule="CCCN(Cc1ccccc1OC)C(=O)c1cncc(Br)c1 [Compound 28]" testedtarget="SERCA2a (Sus scrofa)" assayvalue=28
molecule="CCCN(Cc1ccccc1OC)C(=O)c1ccc(F)cc1 [Compound 14]" testedtarget="SERCA2a (Sus scrofa)" assayvalue=55
molecule="CCCN(Cc1ccccc1OC)C(=O)c1ccccc1Cl [Compound 15]" testedtarget="SERCA2a (Sus scrofa)" assayvalue=35
molecule="CCCN(Cc1ccccc1OC)C(=O)c1cccc(Br)n1 [Compound 27]" testedtarget="SERCA2a (Sus scrofa)" assayvalue=46
molecule="CCCN(Cc1ccccc1OC)C(=O)c1ccc(C)cc1 [Compound 11]" testedtarget="SERCA2a (Sus scrofa)" assayvalue=61
molecule="CCCN(Cc1ccccc1OC)C(=O)c1ccc(Cl)s1 [Compound 6]" testedtarget="SERCA2a (Sus scrofa)" assayvalue=37
molecule="CCCN(Cc1ccccc1OC)C(=O)c1ccc(Cl)cc1 [Compound 17]" testedtarget="SERCA2a (Sus scrofa)" assayvalue=64
molecule="CCCN(Cc1ccccc1OC)C(=O)c1ccnc(Br)c1 [Compound 29]" testedtarget="SERCA2a (Sus scrofa)" assayvalue=21
molecule="CCCN(Cc1ccccc1OC)C(=O)c1cccc(F)c1 [Compound 13]" testedtarget="SERCA2a (Sus scrofa)" assayvalue=53
molecule="CCCN(Cc1ccccc1OC)C(=O)c1cc(C)cs1 [Compound 3]" testedtarget="SERCA2a (Sus scrofa)" assayvalue=45
molecule="CCCN(Cc1ccccc1OC)C(=O)c1cc(F)cc(Br)c1 [Compound 26]" testedtarget="SERCA2a (Sus scrofa)" assayvalue=33
molecule="COc1ccccc1CN(C(=O)c1cc(C)c(C)s1)C(C)C [Compound 34]" testedtarget="SERCA2a (Sus scrofa)" assayvalue=43
molecule="COc1ccccc1CN(C)C(=O)c1cc(C)c(C)s1 [Compound 31]" testedtarget="SERCA2a (Sus scrofa)" assayvalue=52
molecule="CCCN(Cc1ccccc1OC)C(=O)c1ccc(Br)c(Br)c1 [Compound 23]" testedtarget="SERCA2a (Sus scrofa)" assayvalue=28
molecule="CCCN(Cc1ccccc1OC)C(=O)c1cccc(Br)c1F [Compound 24]" testedtarget="SERCA2a (Sus scrofa)" assayvalue=48
